Assay: Monkey PK experiment (plasma concentration by LC-MS/MS)
Assay type: in vivo
Conditions: male cynomolgus monkey, 1 mg/kg intravenous injection, single dose, fasted
Description: Male Cynomolgus monkey, normal grade, 3 monkeys each group (N=3) The compound is weighed and dissolved in normal saline to prepare a 0.5 mg/mL clear solution for intravenous administration. On the day of the experiment, the animals were administered according to the scheme in the table below. […] Pharmacokinetic parameters were calculated by using Phoenix WinNonlin7.0 software according to blood concentration data of different time points.
metric.name: clearance (mL/min/kg)
Your answer should be a plain number; it is taken to be in mL/min/kg.

Prompt: Provide clearance value for the following molecule: Cl.O=C(O)c1ccc2c(n1)CCNC2
Completion: 4
